STUDY TARGET: endogenous human UII receptor (Homo sapiens)
Sequence (Q9UKP6 whole entry): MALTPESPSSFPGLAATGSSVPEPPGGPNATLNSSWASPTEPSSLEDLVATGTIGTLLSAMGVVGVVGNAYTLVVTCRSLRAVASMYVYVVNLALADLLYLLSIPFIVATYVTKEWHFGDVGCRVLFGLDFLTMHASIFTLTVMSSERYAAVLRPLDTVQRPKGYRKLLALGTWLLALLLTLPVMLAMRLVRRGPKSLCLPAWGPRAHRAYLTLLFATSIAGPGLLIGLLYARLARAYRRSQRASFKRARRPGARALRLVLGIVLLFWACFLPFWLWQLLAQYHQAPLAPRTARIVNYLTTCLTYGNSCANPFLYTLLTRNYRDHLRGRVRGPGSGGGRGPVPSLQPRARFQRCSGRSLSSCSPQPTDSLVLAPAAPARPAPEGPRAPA
ASSAY: Human Radioligand Binding Assay ((^125I)-U-II binding to human skeletal muscle myoblasts)
PROPERTY NAME: pKi
Reminder that pKi is minus the log10 of a molar concentration.

Problem: Provide one value: measured pKi of COc1ccc([C@@H](CCCNS(=O)(=O)c2cccs2)N2C(=O)c3cccc(N4CCN(C5CCCCC5)CC4)c3C2=O)cc1OC [Cpd 196]
Solution: 6.42

Problem: Identify pKi associated with the compound COCCC(=O)NCCC[C@H](c1ccc(OC)c(OC)c1)N1C(=O)c2cccc(N3CCN([C@H](C)c4ccccc4)CC3)c2C1=O [Cpd 177]
Solution: 7.03

Problem: State its pKi for this compound: COc1ccc([C@@H](CCCNC(=O)c2cnn(C)c2Cl)N2C(=O)c3cccc(N4CCN([C@H](C)c5ccccc5)CC4)c3C2=O)cc1OC [Cpd 183]
Solution: 7.26

Problem: Please supply the value of reported pKi for the item COc1ccc([C@@H](CCCNS(=O)(=O)c2cccs2)N2C(=O)c3cccc(N4CCN(Cc5ccsc5)CC4)c3C2=O)cc1OC [Cpd 172]
Solution: 7.59

Problem: Specify pKi for COc1ccc(C(CCCNS(=O)(=O)c2cn(C)cn2)N2C(=O)c3cccc(N4CCN([C@H](C)c5ccccc5)CC4)c3C2=O)cc1OC (stereo partly shown) [Cpd 98] and stop.
Solution: 7.38

Problem: Report pKi for COc1ccc([C@@H](CCCNC(=O)COC(C)(C)C)N2C(=O)c3cccc(N4CCN([C@H](C)c5ccccc5)CC4)c3C2=O)cc1OC [Cpd 213]
Solution: 7.27

Problem: Retrieve pKi measured for COc1ccc([C@@H](CCCNC(=O)c2cccnc2)N2C(=O)c3cccc(N4CCN([C@H](C)c5ccccc5)CC4)c3C2=O)cc1OC [Cpd 151] and print it.
Solution: 7.13

Problem: Indicate the recorded pKi value for this compound: COc1ccc([C@@H](CCCNC(=O)CC(C)C)N2C(=O)c3cccc(N4CCN([C@H](C)c5ccccc5)CC4)c3C2=O)cc1OC [Cpd 181]
Solution: 7.39

Problem: Indicate its recorded pKi; the compound in question is COc1ccc([C@@H](CCCNS(N)(=O)=O)N2C(=O)c3cccc(N4CCN([C@H](C)c5ccccc5)CC4)c3C2=O)cc1OC [Cpd 141]
Solution: 7.77

Problem: Consider the compound COc1ccc([C@@H](CCCNC(=O)c2cc(C)c(C)o2)N2C(=O)c3cccc(N4CCN([C@H](C)c5ccccc5)CC4)c3C2=O)cc1OC [Cpd 162] . State its measured pKi.
Solution: 6.77

Problem: Determine from records and report pKi for COc1ccc(CN2C(=O)c3cccc(C4=CCN(Cc5ccccc5)CC4)c3C2=O)cc1OC [Cpd 19]
Solution: 5.28

Problem: Retrieve pKi measured for CCOc1ccc(CN2C(=O)c3cccc(N4CCN([C@H](C)c5ccccc5)CC4)c3C2=O)cc1OC [Cpd 18] and print it.
Solution: 5.54

Problem: Provide one value: measured pKi of COc1ccc(C(CCCNS(=O)(=O)c2ccccn2)N2C(=O)c3cccc(N4CCN([C@H](C)c5ccccc5)CC4)c3C2=O)cc1OC (stereo partly shown) [Cpd 107]
Solution: 8.00

====

STUDY TARGET: rat GPR14 (U-II receptor) (Rattus norvegicus)
Construct: expressed in transfected cells
Sequence (P49684 whole entry): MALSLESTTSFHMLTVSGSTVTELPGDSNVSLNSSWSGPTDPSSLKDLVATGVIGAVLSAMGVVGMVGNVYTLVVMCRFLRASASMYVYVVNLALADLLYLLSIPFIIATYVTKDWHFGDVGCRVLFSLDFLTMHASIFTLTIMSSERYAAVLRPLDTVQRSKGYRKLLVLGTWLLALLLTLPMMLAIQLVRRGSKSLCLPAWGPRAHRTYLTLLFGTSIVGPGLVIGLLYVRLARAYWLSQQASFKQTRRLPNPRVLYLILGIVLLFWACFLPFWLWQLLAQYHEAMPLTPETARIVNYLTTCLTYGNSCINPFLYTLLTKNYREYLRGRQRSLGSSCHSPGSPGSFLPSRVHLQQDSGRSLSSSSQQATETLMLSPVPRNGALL
ASSAY: Rat UII Calcium Mobilization FLIPR Assay
Type: cell-based
CONDITION DESCRIPTION: average value for the compound tested; read-out: Rat UII FLIPR Average IC50
Assign IC50 to each entry below.
Give the quantity in µM, number only.

Problem: Complete the entry with IC50 for COc1ccc([C@@H](CCNC(=O)c2ccncc2)N2C(=O)c3cccc(N4CCN([C@H](C)c5ccccc5)CC4)c3C2=O)cc1OC
Solution: 0.015

Problem: Tell me IC50 reported for COCC(=O)NCCC[C@H](c1ccc(OC)c(OC)c1)N1C(=O)c2cccc(N3CCN([C@H](C)c4ccccc4)CC3)c2C1=O
Solution: 0.0061

Problem: Report IC50, nothing else, for this compound: COc1ccc(C(CNC(=O)Cc2ccncc2)N2C(=O)c3cccc(N4CCN([C@H](C)c5ccccc5)CC4)c3C2=O)cc1OC (stereo partly drawn)
Solution: 0.049
